From: ChEMBL document CHEMBL1961873

# Tested on: Proto-oncogene tyrosine-protein kinase receptor Ret (Homo sapiens), P07949 [Y791F]
# Sequence (P07949 whole entry Y791F): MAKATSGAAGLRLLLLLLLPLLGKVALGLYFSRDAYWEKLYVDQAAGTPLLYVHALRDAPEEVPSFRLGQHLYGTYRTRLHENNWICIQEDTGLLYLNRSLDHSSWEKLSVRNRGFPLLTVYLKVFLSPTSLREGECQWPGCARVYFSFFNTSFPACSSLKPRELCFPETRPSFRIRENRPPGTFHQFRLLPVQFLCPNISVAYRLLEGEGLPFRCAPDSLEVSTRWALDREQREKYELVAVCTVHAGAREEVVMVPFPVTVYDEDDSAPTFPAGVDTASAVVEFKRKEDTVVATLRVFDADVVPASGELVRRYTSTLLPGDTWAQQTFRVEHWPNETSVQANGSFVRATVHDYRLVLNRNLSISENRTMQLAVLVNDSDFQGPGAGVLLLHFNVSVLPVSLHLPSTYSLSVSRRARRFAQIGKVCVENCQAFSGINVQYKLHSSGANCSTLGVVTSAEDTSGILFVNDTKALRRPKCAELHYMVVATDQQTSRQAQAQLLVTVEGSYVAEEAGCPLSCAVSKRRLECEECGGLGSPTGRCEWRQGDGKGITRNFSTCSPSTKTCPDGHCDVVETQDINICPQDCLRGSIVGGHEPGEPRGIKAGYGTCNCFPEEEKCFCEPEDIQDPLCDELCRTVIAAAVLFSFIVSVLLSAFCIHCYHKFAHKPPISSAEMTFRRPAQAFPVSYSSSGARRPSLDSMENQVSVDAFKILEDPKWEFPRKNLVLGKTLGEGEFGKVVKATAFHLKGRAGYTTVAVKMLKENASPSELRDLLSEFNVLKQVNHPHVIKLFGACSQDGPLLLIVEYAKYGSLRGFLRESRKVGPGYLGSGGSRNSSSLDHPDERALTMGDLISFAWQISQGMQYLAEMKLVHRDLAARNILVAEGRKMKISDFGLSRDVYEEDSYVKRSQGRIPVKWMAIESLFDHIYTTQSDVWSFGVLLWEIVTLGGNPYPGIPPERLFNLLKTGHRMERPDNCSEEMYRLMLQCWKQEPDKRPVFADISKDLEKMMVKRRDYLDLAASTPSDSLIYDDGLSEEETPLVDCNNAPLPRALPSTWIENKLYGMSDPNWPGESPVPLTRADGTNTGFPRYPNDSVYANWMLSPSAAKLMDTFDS
# study.conditions: at 1 µM
measurement.type: inhibition (%)
Give bare numbers, in %.

Would you please look over these solved cases?
>>> df
                            compound_string  value_reported
0    Cc1ccc(O)cc1Nc1ccnc2cc(-c3ccccn3)ccc12            93.5
1  CC(C)(CO)CNC(=O)c1ccc2c(c1)/C(=N/Nc1ccc(S(N)(=O)=O)cc1)C(=O)N2            56.3
2  CCCN(CCS(C)(=O)=O)Cc1ccc(-c2ccc3ncnc(Nc4ccc(OCc5cccc(F)c5)c(Cl)c4)c3c2)o1            2.22
3  Nc1nc(-c2cccc(Cl)c2)c(-c2ccc3ncccc3n2)s1            15.2
4  NS(=O)(=O)c1ccc(N/N=C2\C(=O)Nc3ccc4ncccc4c32)cc1            77.7
5  CCn1cc(-c2ccnc3[nH]ccc23)c(-c2cccc(NC(=O)Nc3ccc(OCc4ccccc4)cc3)c2)n1            11.9
6  COc1cc(Nc2nccc(Nc3ccc4c(C)n[nH]c4c3)n2)cc(OC)c1OC            82.4
7  CNC(=O)c1cccc(C#Cc2cncnc2Nc2ccc(OCc3cccc(F)c3)c(Cl)c2)c1            20.7

Here is another compound to look at.
Entry Nc1ncc(-c2cccc(S(N)(=O)=O)c2)c2scc(-c3ccc(F)c(Cl)c3)c12 has what inhibition?
50.2
